- experiment notes: Binding affinity to 5'-dCCAAAAGTTTTG CTCT CAAAACTTTTGG-3' DNA (unknown origin) assessed as change in melting temperature at 2:1 ligand and DNA by specrophotometry
readout: ΔTm (°C)

The cases that follow already have their ΔTm on record.
• Cc1ccc2c(c1)c(/C=C1\Sc3ccccc3N1C)cc[n+]2C = 4
• Cc1cccc2c(/C=C3\Sc4ccccc4N3C)cc[n+](C)c12 = 3
• Cc1ccc2c(/C=C3\Sc4ccccc4N3C)cc[n+](C)c2c1 = 4
• Cc1cccc2c1c(/C=C1\Sc3ccccc3N1C)cc[n+]2C = 4

(A) CN1/C(=C/c2cc[n+](C)c3cccc(-c4ccccc4)c23)Sc2ccccc21
(B) CN1/C(=C/c2cc[n+](C)c3ccccc23)Sc2ccccc21
(C) CN1C=CS/C1=C\c1cc[n+](C)c2ccccc12
Order the 3 compounds from highest to lowest ΔTm. Would you mind listing the labels in the order asked for?
B, A, C

====

- experiment notes: Selectivity index, ratio of IC50 for mouse peritoneal macrophages to IC50 for Leishmania donovani LV82 intracellular amastigotes
- Assay type: toxicity, cell-based
- condition info: read-out: Ratio IC50
readout: selectivity ratio
Note: the reply should be a number with no unit written.

For the compound shown here, CN1/C(=C/c2cc[n+](C)c3ccccc23)Sc2ccccc21.Cc1ccc(S(=O)(=O)[O-])cc1 , give the reported selectivity ratio.
25

====

- experiment notes: Binding affinity to 5'-dCCAAAATTTTG CTCT CAAAATTTTGG-3' DNA (unknown origin) assessed as change in melting temperature at 2:1 ligand and DNA by specrophotometry
readout: ΔTm (°C)

• CN1/C(=C/c2cc[n+](C)c3cccc(-c4ccccc4)c23)Sc2ccccc21 = 3
• CN1/C(=C/c2cc[n+](C)c3ccccc23)Sc2ccccc21 = 4
• Cc1ccc2c(/C=C3\Sc4ccccc4N3C)cc[n+](C)c2c1 = 4

(a) Cc1cccc2c(/C=C3\Sc4ccccc4N3C)cc[n+](C)c12
(b) CN1C=CC(=Cc2sc3ccccc3[n+]2C)C=C1
Between a and b , which one has the lower reported ΔTm value? Reply with the label of the item you choose.
b

====

Quick reference for selectivity ratio among some compounds
- experiment notes: Selectivity index, ratio of IC for mouse J774 cells to IC50 for Leishmania donovani Ld1s promastigotes
- Assay type: toxicity
- condition info: J774 cells versus Leishmania donovani Ld1s promastigotes, read-out: Ratio IC50
Note: the reply should be a number with no unit written.

- CN1/C(=C/c2cc[n+](Cc3ccccc3)c3ccccc23)Sc2ccccc21: 7
- CC[n+]1ccc(/C=C2\Sc3ccccc3N2C)c2ccccc21: 14
- CN1/C(=C/c2cccc[n+]2C)Sc2ccccc21: 8.6
- CN1C=CC(=Cc2sc3ccccc3[n+]2C)C=C1: 20
- COc1ccc2c(c1)c(/C=C1\Sc3ccccc3N1C)cc[n+]2C: 7.1
- CN1/C(=C/c2cc[n+](C)c3cccc(Cl)c23)Sc2ccccc21: 8.1
- CN1/C(=C/c2cc[n+](C)c3cc(-c4ccccc4)ccc23)Sc2ccccc21: 5.3
- Cc1ccc2c(/C=C3\Sc4ccccc4N3C)cc[n+](C)c2c1: 3.2
- COc1cccc2c(/C=C3\Sc4ccccc4N3C)cc[n+](C)c12: 2
- CN1/C(=C/c2cc[n+](C)c3ccccc23)Sc2ccccc21: 14

For the compound shown here, Cc1cccc2c1c(/C=C1\Sc3ccccc3N1C)cc[n+]2C , give the reported selectivity ratio.
5

====

- experiment notes: Selectivity index, ratio of IC for mouse J774 cells to IC50 for Leishmania donovani Ld1s promastigotes
- Assay type: toxicity
- condition info: J774 cells versus Leishmania donovani Ld1s promastigotes, read-out: Ratio IC50
Quick reference for selectivity ratio among some molecules
Note: the reply should be a number with no unit written.

The cases that follow already have their selectivity ratio on record.
- CN1/C(=C/c2cc[n+](C)c3ccc(-c4ccccc4)cc23)Sc2ccccc21: 4.9
- CN1/C(=C/c2cc[n+](C)c3c(-c4ccccc4)cccc23)Sc2ccccc21: 8.3
- CN1/C(=C/c2cc[n+](C)c3cccc(-c4ccccc4)c23)Sc2ccccc21: 3.8
- CCC[n+]1ccc(/C=C2\Sc3ccccc3N2C)c2ccccc21: 11

For the molecule shown here, CN1/C(=C/c2cc[n+](C)c3ccc(Cl)cc23)Sc2ccccc21 , give the reported selectivity ratio.
10

====

- experiment notes: Binding affinity to 5'-dCCAAAATTTTG CTCT CAAAATTTTGG-3' DNA (unknown origin) assessed as change in melting temperature at 2:1 ligand and DNA by specrophotometry
readout: ΔTm (°C)

(1) Cc1ccc2c(c1)c(/C=C1\Sc3ccccc3N1C)cc[n+]2C
(2) CN1C=CS/C1=C\c1cc[n+](C)c2ccccc12
Between 1 and 2 , which one has the lower reported ΔTm value? Reply with the label of the item you choose.
2
(2: 2 °C, 1: 5 °C)

====

- experiment notes: Selectivity index, ratio of IC for mouse J774 cells to IC50 for Leishmania donovani Ld1s promastigotes
- Type: toxicity
- condition info: J774 cells versus Leishmania donovani Ld1s promastigotes, read-out: Ratio IC50
readout: selectivity ratio
Note: the reply should be a number with no unit written.

For the molecule shown here, COc1cccc2c1c(/C=C1\Sc3ccccc3N1C)cc[n+]2C , give the reported selectivity ratio.
3.4

====

- experiment notes: Selectivity index, ratio of IC for mouse J774 cells to IC50 for Leishmania donovani Ld1s promastigotes
- Format: toxicity
- condition info: J774 cells versus Leishmania donovani Ld1s promastigotes, read-out: Ratio IC50
Quick reference for selectivity ratio among some molecules
Note: the reply should be a number with no unit written.

* Cc1ccc2c(c1)c(/C=C1\Sc3ccccc3N1C)cc[n+]2C | 6.5
* COc1ccc2c(/C=C3\Sc4ccccc4N3C)cc[n+](C)c2c1 | 4

For the molecule shown here, Cc1cccc2c(/C=C3\Sc4ccccc4N3C)cc[n+](C)c12 , give the reported selectivity ratio.
4

For the molecule shown here, CN1/C(=C/c2cc[n+](C)c3cc(Cl)ccc23)Sc2ccccc21 , give the reported selectivity ratio.
5.3

For the molecule shown here, CN1C=CS/C1=C\c1cc[n+](C)c2ccccc12 , give the reported selectivity ratio.
9.4
